- TESTED_TARGET: Adrenergic receptor alpha-1 (Rattus norvegicus, UniProt P15823+P23944+P43140)
- TEST: In vitro binding affinity towards alpha-1 adrenergic receptor in rat cerebral cortex membranes
- Type: cell membranes, Membrane
MEASURED_QUANTITY: Ki (µM)
Note: unit µM is implicit; provide only the numeric part.

The examples below pair each entry with its known result.
[[record]]
molecule = "N#Cc1ccccc1N1CCN(CCCCN2C(=O)C3CCCN3C2=O)CC1 (centres undefined)"
measured_quantity = "Ki"
readout_number = 0.0049

[[record]]
molecule = "O=C1C2CCCCN2C(=O)CN1CCCN1CCN(c2cccc(C(F)(F)F)c2)CC1 (centres undefined)"
measured_quantity = "Ki"
readout_number = 0.339

[[record]]
molecule = "CCCOC(=O)c1ccccc1N1CCN(CCCCN2C(=O)C3CCCN3C2=O)CC1 (centres undefined)"
measured_quantity = "Ki"
readout_number = 0.041


# context switch: different molecule, same Ki
[in] What measured Ki goes with N#Cc1ccccc1N1CCN(CCCN2CC(=O)N3CCCC3C2=O)CC1 (centres undefined) ?
[out] 0.017

The measured values listed here are drawn from ChEMBL document CHEMBL1134607.
